Every entry's value here was drawn from paper PMC10559933.

# MEASURED_ON: UniProt P35869
# EXPERIMENTAL_PROTOCOL: Cell-based luciferase reporter gene assay driven by AHR-responsive promoter
MEASURED_ENDPOINT: pEC50
Quick note: pEC50 values are minus log10 of concentrations in mol/L.

Q. Tell me reported pEC50 for COc1cccc2c1c(O)c(C(=O)N(C)c1ccc(C(F)(F)F)cc1)c(=O)n2C , tested with UniProt P35869.
A. 6.00

---

# MEASURED_ON: fl-wild-type HDAC4 (Homo sapiens, UniProt P56524)
# Sequence (P56524 whole entry): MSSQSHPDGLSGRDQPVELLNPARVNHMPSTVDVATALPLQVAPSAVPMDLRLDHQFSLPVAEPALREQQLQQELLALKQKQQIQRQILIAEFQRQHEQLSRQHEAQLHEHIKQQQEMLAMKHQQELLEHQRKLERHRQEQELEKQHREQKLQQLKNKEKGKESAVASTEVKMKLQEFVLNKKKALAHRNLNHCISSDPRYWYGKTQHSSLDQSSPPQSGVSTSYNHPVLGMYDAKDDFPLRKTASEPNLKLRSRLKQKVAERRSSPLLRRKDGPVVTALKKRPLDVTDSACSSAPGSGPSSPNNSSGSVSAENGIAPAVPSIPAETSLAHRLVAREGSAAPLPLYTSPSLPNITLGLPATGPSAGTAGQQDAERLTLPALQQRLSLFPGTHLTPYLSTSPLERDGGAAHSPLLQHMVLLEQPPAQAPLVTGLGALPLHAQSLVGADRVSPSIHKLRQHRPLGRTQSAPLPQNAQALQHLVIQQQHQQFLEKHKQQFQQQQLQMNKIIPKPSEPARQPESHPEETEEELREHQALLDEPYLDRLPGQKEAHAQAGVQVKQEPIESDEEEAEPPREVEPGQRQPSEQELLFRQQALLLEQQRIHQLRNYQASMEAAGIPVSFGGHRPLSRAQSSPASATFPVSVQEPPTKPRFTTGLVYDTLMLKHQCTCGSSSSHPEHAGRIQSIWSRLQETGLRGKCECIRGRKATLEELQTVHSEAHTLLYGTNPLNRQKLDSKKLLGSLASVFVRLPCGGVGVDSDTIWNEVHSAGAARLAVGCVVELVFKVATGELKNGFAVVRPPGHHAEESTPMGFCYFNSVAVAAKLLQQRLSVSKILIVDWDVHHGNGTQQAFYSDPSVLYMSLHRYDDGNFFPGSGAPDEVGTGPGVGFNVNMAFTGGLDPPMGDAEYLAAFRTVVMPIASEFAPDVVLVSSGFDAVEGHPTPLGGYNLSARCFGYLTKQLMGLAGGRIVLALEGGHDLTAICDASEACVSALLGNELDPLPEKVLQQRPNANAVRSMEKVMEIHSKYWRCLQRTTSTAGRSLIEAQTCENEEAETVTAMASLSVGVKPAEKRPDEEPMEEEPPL
# EXPERIMENTAL_PROTOCOL: SPR competition: TasQ in solution vs immobilized TasQ for fl-wild-type HDAC4
MEASURED_ENDPOINT: pEC50
Quick note: pEC50 values are minus log10 of concentrations in mol/L.

Q. Reported pEC50 for COc1cccc2c1c(O)c(C(=O)N(C)c1ccc(C(F)(F)F)cc1)c(=O)n2C : what is it?
A. 6.00

---

# MEASURED_ON: Human Aryl Hydrocarbon Receptor (AHR) (Homo sapiens, UniProt P35869)
# Sequence (P35869 11-848): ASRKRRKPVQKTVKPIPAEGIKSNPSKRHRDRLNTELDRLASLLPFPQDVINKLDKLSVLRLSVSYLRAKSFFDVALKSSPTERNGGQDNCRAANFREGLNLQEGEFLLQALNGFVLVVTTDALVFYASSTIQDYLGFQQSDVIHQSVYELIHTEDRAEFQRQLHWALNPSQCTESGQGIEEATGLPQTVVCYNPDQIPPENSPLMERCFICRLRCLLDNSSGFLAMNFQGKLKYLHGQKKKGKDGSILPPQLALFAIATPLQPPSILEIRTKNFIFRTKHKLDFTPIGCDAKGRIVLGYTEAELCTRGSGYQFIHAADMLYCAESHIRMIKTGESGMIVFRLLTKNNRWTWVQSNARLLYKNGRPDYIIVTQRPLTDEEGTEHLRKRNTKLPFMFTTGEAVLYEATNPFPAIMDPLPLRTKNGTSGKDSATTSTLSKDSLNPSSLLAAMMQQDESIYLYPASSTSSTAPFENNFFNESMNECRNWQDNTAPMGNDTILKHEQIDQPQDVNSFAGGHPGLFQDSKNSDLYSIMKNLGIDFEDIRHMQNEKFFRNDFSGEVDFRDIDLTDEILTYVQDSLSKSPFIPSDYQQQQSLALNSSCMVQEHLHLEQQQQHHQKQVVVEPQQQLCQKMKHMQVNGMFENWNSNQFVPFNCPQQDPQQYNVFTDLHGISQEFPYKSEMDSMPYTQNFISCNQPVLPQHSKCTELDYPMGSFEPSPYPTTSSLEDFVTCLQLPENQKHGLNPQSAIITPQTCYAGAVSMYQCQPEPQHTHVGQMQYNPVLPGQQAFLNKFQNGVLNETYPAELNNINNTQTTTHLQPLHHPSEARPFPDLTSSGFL
# EXPERIMENTAL_PROTOCOL: Cell-based luciferase reporter gene assay driven by AHR-responsive promoter
# CONDITIONS: read-out: AHR agonist EC50; human cell-based luciferase reporter
MEASURED_ENDPOINT: EC50
Reply with the number and its unit after it.

Q. Reported EC50 for COc1cccc2c1c(O)c(C(=O)N(c1ccc(C(F)(F)F)cc1)C1CCCCC1)c(=O)n2C : what is it?
A. 10 µM
